src = patent US10752640B2

Experimental Target: UniProtKB O60885
Assay Protocol: FRET assay, half maximal inhibitory concentration (IC50)
Type: binding
Experimental Setup: BRD4 protein 50 nM, Biotin-H4KAc4 peptide 12.5 nM; List of Classification

{"columns": ["Molecule", "Experimental Target", "IC50"],
 "data": [
  ["Cc1cc(=O)[nH]c2ccc(NC(=O)c3cc(S(=O)(=O)N(C)C)ccc3N3CC[C@H](F)C3)cc12", "UniProtKB O60885", "< 200 nM"],
  ["Cc1cc(O)nc2ccc(NC(=O)c3ccc(C(F)(F)F)nc3N3CCOCC3)cc12", "UniProtKB O60885", "200 to 500 nM"],
  ["CC(=O)c1cc(C(=O)Nc2ccc3nc(O)cc(C)c3c2)c(N2CCCC2)cn1", "UniProtKB O60885", "< 200 nM"],
  ["Cc1cc(O)nc2ccc(NC(=O)c3cc(C4(N5CCOCC5)CC4)ccc3N3CCCC3CN(C)C)cc12 (centres unmarked)", "UniProtKB O60885", "< 200 nM"],
  ["Cc1cc(O)nc2ccc(NC(=O)c3cccnc3N3C4CCC3COC4)cc12", "UniProtKB O60885", "< 200 nM"]
]}

====

Experimental Target: BRD4 protein (Homo sapiens, UniProt O60885)
Assay Protocol: FRET assay, half maximal inhibitory concentration (IC50)
Format: binding
Experimental Setup: BRD4 protein 50 nM, Biotin-H4KAc4 peptide 12.5 nM; List of Classification
Measured IC50 accompanies every entry in the list below.

{"columns": ["Molecule Smiles", "Experimental Target", "IC50"],
 "data": [
  ["CC(=O)c1cc(C(=O)Nc2ccc3nc(O)cc(C)c3c2)c(N2CCOCC2)cn1", "BRD4 protein (Homo sapiens, UniProt O60885)", "< 200 nM"],
  ["Cc1cc(O)nc2ccc(NC(=O)c3cc4[nH]cc(CN(C)C)c4cc3N3CCCC3)cc12", "BRD4 protein (Homo sapiens, UniProt O60885)", "< 200 nM"],
  ["Cc1cc(O)nc2ccc(NC(=O)c3cnccc3N3CCOCC3)cc12", "BRD4 protein (Homo sapiens, UniProt O60885)", "< 200 nM"]
]}

====

Experimental Target: BRD4 protein (Homo sapiens, UniProt O60885)
Assay Protocol: FRET assay, half maximal inhibitory concentration (IC50)
Assay type: binding
Experimental Setup: BRD4 protein 50 nM, Biotin-H4KAc4 peptide 12.5 nM; A Further List of Classification
Measured IC50 accompanies every entry in the list below.
Readout Label: IC50

{"columns": ["Compound", "Experimental Target", "Result"],
 "data": [
  ["CN(C)S(=O)(=O)c1ccc(N2CCOCC2)c(C(=O)Nc2ccc3[nH]c(=O)[nH]c(=O)c3c2)c1 [S37]", "BRD4 protein (Homo sapiens, UniProt O60885)", "> 10 µM"],
  ["Cc1cc(O)nc2ccc(NC(=O)c3cc(S(=O)(=O)N(C)C)ccc3N3CCC(F)C3)cc12 (stereo not shown) [S42]", "BRD4 protein (Homo sapiens, UniProt O60885)", "< 0.2 µM"],
  ["Cc1cc(O)nc2ccc(NC(=O)c3cc(S(=O)(=O)N(C)C)ccc3F)cc12 [S33]", "BRD4 protein (Homo sapiens, UniProt O60885)", "> 10 µM"],
  ["Cc1cc(O)nc2ccc(NC(=O)c3cc(S(=O)(=O)N(C)C)ccc3N3CCCC3CN(C)C)cc12 (stereo not shown) [S56]", "BRD4 protein (Homo sapiens, UniProt O60885)", "< 0.2 µM"],
  ["Cc1ccc(C(=O)Nc2ccc3c(c2)CCC(=O)N3C)cc1S(=O)(=O)NC1CCCC1 [S3]", "BRD4 protein (Homo sapiens, UniProt O60885)", "1 to 10 µM"],
  ["Cc1cc(O)nc2ccc(NC(=O)c3cc(S(=O)(=O)N(C)C)ccc3N3CCC(OCC(N)=O)C3)cc12 (stereo not shown) [S50]", "BRD4 protein (Homo sapiens, UniProt O60885)", "0.5 to 1 µM"],
  ["Cc1cc(O)nc2ccc(NC(=O)c3cccc(CN4CCCC4=O)c3)cc12 [S24, reference compound]", "BRD4 protein (Homo sapiens, UniProt O60885)", "> 10 µM"],
  ["CN1C(=O)CCc2cc(NC(=O)c3cccnc3N3CCOCC3)ccc21 [S4]", "BRD4 protein (Homo sapiens, UniProt O60885)", "1 to 10 µM"],
  ["Cc1cc(O)nc2ccc(NC(=O)c3ccccc3N3CCN(c4cnccn4)CC3)cc12 [S11]", "BRD4 protein (Homo sapiens, UniProt O60885)", "1 to 10 µM"],
  ["Cc1cc(O)nc2ccc(NC(=O)c3cc(CN4CCOCC4)cnc3N3CC(CO)OCC3C)cc12 (stereo not shown) [S115]", "BRD4 protein (Homo sapiens, UniProt O60885)", "> 10 µM"]
]}
